Biological target: T1, CSTF2 (CstF-64) RRM wild type (Homo sapiens, UniProt P33240 1-107)
T1 sequence: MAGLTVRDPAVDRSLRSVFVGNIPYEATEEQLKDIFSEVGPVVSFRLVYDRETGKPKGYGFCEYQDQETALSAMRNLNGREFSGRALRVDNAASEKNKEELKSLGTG
Test: fluorescence polarization
test.readout: Kd
Reply with the number, then its unit.

INPUT: Query: Kd; subject: AUUUUAUGUUUCAGGU (ssRNA) [SVL RNA, 3'-fluorescein]
OUTPUT: 1450 nM

INPUT: # repeat for GUGUGUGUGUGUGUGU (ssRNA) [(GU)8 RNA, 3'-fluorescein]
OUTPUT: 260 nM
